// provenance: ChEMBL document CHEMBL2439991

test system: T98G; assay: Cytotoxicity against human T98G cells after 72 hrs by MTT assay; type: functional
MEASUREMENT_NAME: GI50

COc1ccc([C@H]2O[C@H](c3ccc(OC)c(OC)c3)[C@@H](C)[C@H]2C)cc1OC [GANSCHISANDRINE]	58.3 µM

Could you now consider this next compound?
Item under review: COc1ccc(NC(=O)Nc2ccc(OC)c(OC)c2)cc1OC . Reported GI50?
> 50 µM

###

The entries below are paired with their reported GI50.
test system: T98G; assay: Cytotoxicity against human T98G cells after 72 hrs by MTT assay; type: functional

Item under review: COc1ccc(CNC(=O)Cc2ccc(OC)c(OC)c2)cc1OC . Reported GI50?
> 100 µM

Item under review: COc1ccc(C2=NCCc3cc(OC)c(OC)cc32)cc1OC . Reported GI50?
> 100 µM
